Here the recorded IC50 is given for each entry.
- ASSAY_SYSTEM: human CXCR3 (N-delta 4) (Homo sapiens, UniProt P49682)
- Construct: CD8 leader; Flag tag; expressed in transfected cells; membranes used
- ASSAY_EXPLANATION: Human CXCR3 (N-delta 4) scintillation proximity assay (SPA), [125I] IP-10 binding
- CONDITION_PARAMETERS: IC50 rating; Ba/F3-hCXCR3 (N-delta 4) membranes, 25 pM [125I] IP-10
- Description: The inventive compounds can readily be evaluated to determine activity at the CXCR3 receptors by known methods, such as, for example, development of a human CXCR3 (N-delta 4) Binding Assay. Cloning and expression of human CXCR3 (N-delta 4): The DNA encoding human CXCR3 was cloned by PCR using human genomic DNA (Promega, Madison, Wis.) as a template. […]

[
  {
    "MOLECULE": "O=C(NCc1ccc(F)c(F)c1)c1cnc(N2CCN(C3CCN(Cc4ccc([N+](=O)[O-])cc4)CC3)CC2)c(Cl)c1",
    "READOUT": "IC50",
    "RESULT": "25 to 100 nM"
  },
  {
    "MOLECULE": "O=C(NCC1CC1)c1cnc(N2CCN(C3CCN(Cc4ccc(Cl)cc4)CC3)CC2)c(Cl)c1",
    "READOUT": "IC50",
    "RESULT": "> 100 nM"
  },
  {
    "MOLECULE": "CC[C@H]1CN(c2ncc(C(=O)NCc3ccc(F)c(F)c3)cc2Cl)CCN1C1CCN(C)CC1",
    "READOUT": "IC50",
    "RESULT": "> 100 nM"
  }
]

Data request: Would you kindly share the measured IC50 for CC[C@H]1CN(c2ncc(C(N)=O)cc2Cl)CCN1C1CCN(C(=O)c2ccc(Cl)cc2N2CCOC2=O)CC1 ?
Data returned: 25 to 100 nM

Data request: // lookup IC50 for CNC(=O)c1cnc(N2CCN(C3CCN(Cc4ccc(F)cc4S(=O)(=O)N(C)c4ccc(Cl)cc4)CC3)[C@@H](C)C2)c(Cl)c1
Data returned: > 100 nM

Data request: Field request: IC50 | item: CCNC(=O)c1cnc(N2C[C@H](CC)N(C3CCN(C(=O)c4ccc(Cl)cc4)CC3)C[C@H]2C)c(Cl)c1
Data returned: < 25 nM

Data request: Query: IC50; subject: CC[C@H]1CN(c2ncc(CNS(=O)(=O)N(C)C)cc2Cl)CCN1C1CCN(Cc2ccc(Cl)cc2F)CC1
Data returned: < 25 nM

Data request: Find the recorded IC50 belonging to O=C(NCCOc1ccccc1)c1cnc(N2CCN(C3CCN(Cc4ccc(F)cc4)CC3)CC2)c(Cl)c1 and report it.
Data returned: > 100 nM

----------
- ASSAY_SYSTEM: human CXCR3 (N-delta 4) (Homo sapiens)
- Construct: CD8 leader; Flag tag; expressed in transfected cells; membranes used
- ASSAY_EXPLANATION: Human CXCR3 (N-delta 4) scintillation proximity assay (SPA), [125I] IP-10 binding
- CONDITION_PARAMETERS: IC50 rating; Ba/F3-hCXCR3 (N-delta 4) membranes, 25 pM [125I] IP-10
- Source text: The inventive compounds can readily be evaluated to determine activity at the CXCR3 receptors by known methods, such as, for example, development of a human CXCR3 (N-delta 4) Binding Assay. Cloning and expression of human CXCR3 (N-delta 4): The DNA encoding human CXCR3 was cloned by PCR using human genomic DNA (Promega, Madison, Wis.) as a template. […]
READOUT: IC50

[
  {
    "MOLECULE": "O=C(NCCOc1ccccc1)c1cnc(N2CCN(C3CCN(Cc4ccc(OC(F)(F)F)cc4)CC3)CC2)c(Cl)c1 [compound 169]",
    "ASSAY_SYSTEM": "human CXCR3 (N-delta 4) (Homo sapiens)",
    "READOUT": "IC50",
    "RESULT": "> 0.1 µM"
  }
]

Data request: Please look up its IC50: O=C(NCCOc1ccccc1)c1cnc(N2CCN(C3CCN(Cc4ccc(Br)cc4)CC3)CC2)c(Br)c1 [compound 290]
Data returned: 0.025 to 0.1 µM

Data request: Which IC50 reading was recorded for the molecule CC[C@H]1CN(c2ncc(C(=O)NC)c(N)c2Cl)CCN1C1CCN(Cc2ccc(Cl)cc2F)CC1 [compound 316] ?
Data returned: 0.025 to 0.1 µM

Data request: Given the entry COc1ccc(CN2CCC(N3CCN(c4ncc(C(=O)NCc5ccc(Br)cc5)cc4Cl)CC3)CC2)cc1 [compound 137] , report its measured IC50.
Data returned: 0.025 to 0.1 µM

Data request: Report IC50 for O=C(NCc1ccc(F)c(F)c1)c1cnc(N2CCN(C3CCN(Cc4ccc(Br)cc4F)CC3)CC2)c(Cl)c1 [compound 62] please.
Data returned: > 0.1 µM

Data request: # IC50 lookup, item CCCCNC(=O)c1cnc(N2CCN(C3CCN(Cc4ccc(Cl)cc4)CC3)CC2)c(Cl)c1 [compound 177]
Data returned: > 0.1 µM

Data request: Query (molecule): CC[C@H]1CN(c2ncc(C(N)=O)cc2Cl)CCN1C1CCN(Cc2ccc(Cl)cc2N2CCOC2=O)CC1 [compound 460] ; field requested: IC50
Data returned: 0.025 to 0.1 µM

Data request: Recorded IC50 for CC[C@H]1CN(c2ncc(C(=O)OC)cc2Cl)CCN1C1CCN(C(=O)c2ccc(-n3cccc3)cc2)CC1 [compound 457] , please?
Data returned: > 0.1 µM

Data request: Report IC50 for O=C(NCc1cc(Cl)cc(Cl)c1)c1cnc(N2CCN(C3CCN(Cc4ccc(F)cc4)CC3)CC2)c(Cl)c1 [compound 77] please.
Data returned: > 0.1 µM

----------
- ASSAY_SYSTEM: human CXCR3 (N-delta 4) (Homo sapiens, UniProt P49682)
- Construct: CD8 leader; Flag tag; expressed in transfected cells; membranes used
- Sequence (P49682 5-368 limits assumed): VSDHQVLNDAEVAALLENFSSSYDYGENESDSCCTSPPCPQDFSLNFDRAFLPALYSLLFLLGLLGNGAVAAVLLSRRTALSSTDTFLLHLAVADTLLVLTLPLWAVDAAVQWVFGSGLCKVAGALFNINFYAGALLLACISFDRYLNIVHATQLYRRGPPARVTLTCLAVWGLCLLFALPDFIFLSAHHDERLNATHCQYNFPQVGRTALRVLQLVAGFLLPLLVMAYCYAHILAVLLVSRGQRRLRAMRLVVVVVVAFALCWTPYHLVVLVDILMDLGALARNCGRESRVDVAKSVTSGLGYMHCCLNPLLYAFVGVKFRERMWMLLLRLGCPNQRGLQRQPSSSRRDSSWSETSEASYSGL
- ASSAY_EXPLANATION: Human CXCR3 (N-delta 4) scintillation proximity assay (SPA), [125I] IP-10 binding
- CONDITION_PARAMETERS: IC50 rating; Ba/F3-hCXCR3 (N-delta 4) membranes, 25 pM [125I] IP-10
Attribute: IC50

[
  {
    "COMPOUND": "COc1ccc(CN2CCC(N3CCN(c4ncc(C(=O)NCc5ccc(Cl)c(Cl)c5)cc4Cl)CC3)CC2)cc1",
    "ASSAY_SYSTEM": "human CXCR3 (N-delta 4) (Homo sapiens, UniProt P49682)",
    "RESULT": "25 to 100 nM"
  },
  {
    "COMPOUND": "N#Cc1ccc(CN2CCC(N3CCN(c4ncc(C(=O)NCCOc5ccccc5)cc4Br)CC3)CC2)cc1",
    "ASSAY_SYSTEM": "human CXCR3 (N-delta 4) (Homo sapiens, UniProt P49682)",
    "RESULT": "25 to 100 nM"
  },
  {
    "COMPOUND": "CC[C@H]1CN(c2ncc(C(=O)O)cc2Cl)CCN1C1CCN(Cc2ccc(Cl)cc2F)CC1",
    "ASSAY_SYSTEM": "human CXCR3 (N-delta 4) (Homo sapiens, UniProt P49682)",
    "RESULT": "> 100 nM"
  },
  {
    "COMPOUND": "O=C(NCc1ccc(C(F)(F)F)cc1)c1cnc(N2CCN(C3CCN(Cc4ccc(F)cc4)CC3)CC2)c(Cl)c1",
    "ASSAY_SYSTEM": "human CXCR3 (N-delta 4) (Homo sapiens, UniProt P49682)",
    "RESULT": "> 100 nM"
  },
  {
    "COMPOUND": "CC[C@H]1CN(c2ncc(C(C)N)cc2Cl)CCN1C1CCN(Cc2ccc(Cl)cc2F)CC1 (stereo partly shown)",
    "ASSAY_SYSTEM": "human CXCR3 (N-delta 4) (Homo sapiens, UniProt P49682)",
    "RESULT": "> 100 nM"
  }
]

Data request: Item COc1ccc(CN2CCC(N3CCN(c4ncc(C(=O)NCc5ccc(Cl)cc5Cl)cc4Cl)CC3)CC2)cc1 has what recorded IC50?
Data returned: > 100 nM

Data request: Which IC50 reading was recorded for the compound COC(=O)c1cnc(N2CCN(C3CCN(Cc4ccc(F)cc4)CC3)[C@@H](C)C2)c(Cl)c1 ?
Data returned: > 100 nM

Data request: Could you tell me which IC50 is on file for O=C(NCc1ccc(Cl)c(Cl)c1)c1cnc(N2CCN(C3CCN(Cc4ccc(Br)cc4F)CC3)CC2)c(Cl)c1 ?
Data returned: > 100 nM

Data request: # lookup: IC50 of CCNC(=O)c1cnc(N2CCN(C3CCN(Cc4ccc(Cl)cc4)CC3C)[C@@H](C)C2)c(Cl)c1 (stereo partly shown)
Data returned: < 25 nM

Data request: What IC50 value was documented for this compound, O=C(NC1CCCC1)c1cnc(N2CCN(C3CCN(Cc4ccc([N+](=O)[O-])cc4)CC3)CC2)c(Cl)c1 ?
Data returned: > 100 nM
